B1: TRAF3IP2 (parent)
chain: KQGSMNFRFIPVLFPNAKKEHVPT

Variants of: B1
Assay info: protein stability index of a GFP-peptide fusion (GPS, HEK-293T) (PSI 1-6); higher = more stable;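 note: lentivirally expressed fusions sorted by FACS into six bins by GFP to DsRed ratio, PSI derived from sequencing read proportions per bin multiplied by bin number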
Test conditions: c terminus: a fixed tail appended
// FALSE strictly below 2 in protein stability index; TRUE otherwise

- KQGSMNMRFIPVLFPNAKKEHVPT [F7M]: TRUE
- KQGSMNFRFIPVLFPNYKKEHVPT [A17Y]: FALSE
- KQGSMNFRFIFVLFPNAKKEHVPT [P11F]: TRUE
- KQGSMNFPFIPVLFPNAKKEHVPT [R8P]: TRUE
- KQGSMNFRFIPVLFPNAKKEHVQT [P23Q]: FALSE
- KQGSMNFRFIYVLFPNAKKEHVPT [P11Y]: TRUE
- KQGSMNFRFIPVLFPNAKKEHVYT [P23Y]: FALSE
- KQGSMNFRFMPVLFPNAKKEHVPT [I10M]: TRUE
- KQGSMNFRFIPVLTPNAKKEHVPT [F14T]: TRUE
- KQGSMNFRFIPVLFPNAKKEHVPE [T24E]: TRUE
- KQGSMNFRFIPVLFPMAKKEHVPT [N16M]: FALSE
- KQKSMNFRFIPVLFPNAKKEHVPT [G3K]: FALSE
- KHGSMNFRFIPVLFPNAKKEHVPT [Q2H]: FALSE
- KQGSMNFRFIPVLFPNAKKEWVPT [H21W]: FALSE
- KQGSMNFRFIPVLFPNAKQEHVPT [K19Q]: FALSE
- KQGSMNFRFIPPLFPNAKKEHVPT [V12P]: TRUE
- KQGSMNFRFICVLFPNAKKEHVPT [P11C]: TRUE
- MQGSMNFRFIPVLFPNAKKEHVPT [K1M]: FALSE
- KQGSMNFRFIPVLFPNAKKEHVTT [P23T]: TRUE
- KQGSMNFRFIPVLIPNAKKEHVPT [F14I]: FALSE
- KQGSMNFRFIPSLFPNAKKEHVPT [V12S]: TRUE
- KQGSMNFRFIPVLCPNAKKEHVPT [F14C]: FALSE
- KQGCMNFRFIPVLFPNAKKEHVPT [S4C]: FALSE
- KGGSMNFRFIPVLFPNAKKEHVPT [Q2G]: TRUE
- KQGSMNFRFIPVLFPNAKKWHVPT [E20W]: FALSE
- KQGSMNFRFIPVLFPNAKKEEVPT [H21E]: TRUE
- KQGSANFRFIPVLFPNAKKEHVPT [M5A]: TRUE
- RQGSMNFRFIPVLFPNAKKEHVPT [K1R]: TRUE
- KQGSMNFRFIEVLFPNAKKEHVPT [P11E]: FALSE
- KQQSMNFRFIPVLFPNAKKEHVPT [G3Q]: FALSE
- KQGSMNRRFIPVLFPNAKKEHVPT [F7R]: TRUE
- KQGSMNFRFIPVLFKNAKKEHVPT [P15K]: FALSE
- KQGSMNFRFIPLLFPNAKKEHVPT [V12L]: TRUE
- KQGSMNFRFIPVLFPNAKKAHVPT [E20A]: TRUE
- KNGSMNFRFIPVLFPNAKKEHVPT [Q2N]: FALSE
- KQGSMNFRFIPVLGPNAKKEHVPT [F14G]: TRUE
- KQGSMNFRFIPWLFPNAKKEHVPT [V12W]: TRUE
- KQGSMNFRFIPVLFPNDKKEHVPT [A17D]: TRUE
- IQGSMNFRFIPVLFPNAKKEHVPT [K1I]: FALSE
- KQGSMNFRFIPVLFPNAKKVHVPT [E20V]: TRUE
- KQGSHNFRFIPVLFPNAKKEHVPT [M5H]: TRUE
- KQGSMNFRFIPVLFMNAKKEHVPT [P15M]: FALSE
- KQGSMNFRFIPVLFPNANKEHVPT [K18N]: FALSE
- KQGSENFRFIPVLFPNAKKEHVPT [M5E]: TRUE
- KQGSMNFRFIPVLFPNAKKEHVWT [P23W]: TRUE
- KQGSMNFRFIPVLFPQAKKEHVPT [N16Q]: FALSE
- KEGSMNFRFIPVLFPNAKKEHVPT [Q2E]: TRUE
- KQGSMNFRFIPVLFPNAKKEHVPY [T24Y]: TRUE
- KQGSWNFRFIPVLFPNAKKEHVPT [M5W]: FALSE
- KQGSMNFRFIPVLEPNAKKEHVPT [F14E]: TRUE
- KQGSMNARFIPVLFPNAKKEHVPT [F7A]: TRUE
- KQGSMHFRFIPVLFPNAKKEHVPT [N6H]: FALSE
- KQGSMNFQFIPVLFPNAKKEHVPT [R8Q]: TRUE
- KQGSMNFRFIPMLFPNAKKEHVPT [V12M]: FALSE
- KQGSNNFRFIPVLFPNAKKEHVPT [M5N]: TRUE
- KQGSMNFRFIPVLFPNAKPEHVPT [K19P]: FALSE
- KQGSMNFRFIPVLFPNATKEHVPT [K18T]: FALSE
- KQLSMNFRFIPVLFPNAKKEHVPT [G3L]: FALSE
- KQGSMNFLFIPVLFPNAKKEHVPT [R8L]: TRUE
- KQGSMNFRFIPVLFPNAKKFHVPT [E20F]: FALSE
- KQGSMNFRFIPVLFPNAKKRHVPT [E20R]: FALSE
- KQGSMNFRFIPVLFPNAKKEHVPP [T24P]: TRUE
- KQGSMNFRFIPVLFPVAKKEHVPT [N16V]: FALSE
- KQGSMIFRFIPVLFPNAKKEHVPT [N6I]: TRUE
- KQGSMNSRFIPVLFPNAKKEHVPT [F7S]: TRUE
- KQGSMNHRFIPVLFPNAKKEHVPT [F7H]: TRUE
- KQGSMNFAFIPVLFPNAKKEHVPT [R8A]: FALSE
- KQGSMNFRFIPVLFPNAKKEHVPW [T24W]: TRUE
- KQGSMAFRFIPVLFPNAKKEHVPT [N6A]: FALSE
- KQGSMNFRFIPDLFPNAKKEHVPT [V12D]: TRUE
- KQGSMNFRFIPVCFPNAKKEHVPT [L13C]: TRUE
- KQGSMNFRFIPVLFPNAKREHVPT [K19R]: FALSE
- KQGSMNFRTIPVLFPNAKKEHVPT [F9T]: TRUE
- KQGSMNFRFEPVLFPNAKKEHVPT [I10E]: TRUE
- KQGSMNFRFIPVLFPNAKKIHVPT [E20I]: TRUE
- KQGSMNFRFIPVLFPNAKKEHVPS [T24S]: FALSE
- KQGVMNFRFIPVLFPNAKKEHVPT [S4V]: FALSE
